# system-tested: T1, human tissue factor pathway inhibitor (TFPI) (human, UniProt P10646 29-304, limits assumed)
# T1 construct: bought; also called hTFPI; human TFPI
# T1 sequence (looked up): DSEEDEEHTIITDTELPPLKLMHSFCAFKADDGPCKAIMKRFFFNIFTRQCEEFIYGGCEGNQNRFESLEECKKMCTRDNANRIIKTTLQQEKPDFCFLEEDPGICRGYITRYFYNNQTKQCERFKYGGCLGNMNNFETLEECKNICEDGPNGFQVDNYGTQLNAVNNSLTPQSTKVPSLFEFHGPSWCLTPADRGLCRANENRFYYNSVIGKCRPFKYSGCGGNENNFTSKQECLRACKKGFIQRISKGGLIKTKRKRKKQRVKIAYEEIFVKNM
# assay-details: SPR, TFPI immobilized
Recorded kon values for a group of binders are listed next.
Give the quantity in M⁻¹ s⁻¹, number only.

4B7 HC_D62R (Fab, V domains shown, also called 4B7-D62R) VH: QVQLQQSGPGLVKPSQTLSLTCAISGDSVSSNSAAWSWIRQSPGRGLEWLGIIYKRSKWYNRYAVSVKSRITINPDTSKNQFSLQLNSVTPEDTAVYYCARWHSDKHWGFDYWGQGTLVTVSS VL: DIVMTQSPLSLPVTPGEPASISCRSSQSLVFSDGNTYLNWYLQKPGQSPQLLIYKGSNRASGVPDRFSGSGSGTDFTLKISRVEAEDVGVYYCQQYDSYPLTFGQGTKVEIKR    2.83e+06

// switching to the query binder
Query :: Suppose we examine the binder 2A8 LC_N51V (Fab, V domains shown, also called 2A8-13) VH: QVQLVESGGGLVQPGGSLRLSCAASGFTFRSYGMSWVRQAPGKGLEWVSSIRGSSSSTYYADSVKGRFTISRDNSKNTLYLQMNSLRAEDTAVYYCARKYRYWFDYWGQGTLVTVSS VL: DIELTQPPSVSVAPGQTARISCSGDNLRNYYAHWYQQKPGQAPVVVIYYDVNRPSGIPERFSGSNSGNTATLTISGTQAEDEADYYCQSWDDGVPVFGGGTKLTVLG ; what kon value has been reported?
Result :: 4.26e+06

Value source: patent USRE47150
